target: T1, Cynomolgus Factor P (cynomolgus); experiment: Biacore SPR, captured Factor P
T1 construct: Purified from cynomolgus serum for SET/Biacore; Factor P of cynomolgus serum in the functional assays; also called Cyno Factor P; cyno FP
Listing of entries alongside the reported pKd.
API: returns pKd as number; meaning -log10 of concentration in mol/L.

• NVS962-T (Fab, V domains shown, NVS962 with heavy chain N30 replaced with threonine; also called NSV962-T) VH: EVQLVQSGAEVKKPGSSVKVSCKASGGTFTSYAISWVRQAPGQGLEWMGRIIPIFGTANYAQKFQGRVTITADESTSTAYMELSSLRSEDTAVYYCARHGGYSFDSWGQGTLVTVSS VL: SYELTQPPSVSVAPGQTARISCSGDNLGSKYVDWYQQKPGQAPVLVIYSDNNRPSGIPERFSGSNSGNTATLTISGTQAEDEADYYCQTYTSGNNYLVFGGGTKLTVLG = 9.76

Need pKd of NVS963 (Fab, V domains shown, Disulfide-bridged Fab; also called Fab NVS963) VH: EVQLVQSGAEVKKPGSSVKVSCKASGGTFSSYAISWVRQAPGQGLEWMGPINPYYGDAIYAQKFQGRVTITADESTSTAYMELSSLRSEDTAVYYCARYYSDYMDYWGQGTLVTVSS VL: QSVLTQPPSVSGAPGQRVTISCTGSSSNIGAGYDVHWYQQLPGTAPKLLIHDNSHRPSGVPDRFSGSKSGTSASLAITGLQSEDEADYYCASYDESAHSVFGGGTKLTVLG , thanks.
9.77
